Attribute: abundance fitness
B1: Triacylglycerol hydrolase DDHD2, residues 389 to 447; numbered along this chain, O94830 (parent)
chain: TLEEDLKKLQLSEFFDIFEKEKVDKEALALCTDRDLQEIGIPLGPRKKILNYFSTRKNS

Variants of: B1
PROCEDURE TEXT: abundance fitness (aPCA) (normalised: wild type 0, dead -1); higher = more abundant; growth selection in yeast, the domain comes from the species named
PARTICULARS: Homo sapiens
Answer field: number only, no words.

Use these answered entries as a reference point.
SEQ: TLEEDLKKLQLSEFFDIFEKEKVDKEALALCTDRDLQEIGIPLGPRNKILNYFSTRKNS [K47N]
abundance fitness: 0.254
//
SEQ: TLEEDLKKLQLSEFFDIFEYEKVDKEALALCTDRDLQEIGIPLGPRKKILNYFSTRKNS [K20Y]
abundance fitness: -0.324
//
SEQ: TLEEDLKKLQGSEFFDIFEKEKVDKEALALCTDRDLQEIGIPLGPRKKILNYFSTRKNS [L11G]
abundance fitness: -1.22
//
SEQ: TLEEDLKKLQLSEFFDIFEKEKVDKEALALCTDRDQQEIGIPLGPRKKILNYFSTRKNS [L36Q]
abundance fitness: -0.448
//
SEQ: TLEEDLKKLQLSEFFDIFEKEKVDKEALALCTDRDLQEIGIPLGPRKKILNYFSWRKNS [T55W]
abundance fitness: -0.295

input: Returns the measured abundance fitness for the input variant. Input: TLEEDLKKLQLSEFYDIFEKEKVDKEALALCTDRDLQEIGIPLGPRKKILNYFSTRKNS [F15Y]
output: -0.114

input: Item: TLEEDLKKLQLSEFFDIFEKEKVVKEALALCTDRDLQEIGIPLGPRKKILNYFSTRKNS [D24V]
output: -0.707

input: Item: TLEEDLKKLQLSEFFDIFEKEKVDKEALALCTDRDLQEIGIPLGPRKKILNYFSTRKPS [N58P]
output: -0.199

input: Item: TIEEDLKKLQLSEFFDIFEKEKVDKEALALCTDRDLQEIGIPLGPRKKILNYFSTRKNS [L2I]
output: -0.017

input: Item: TLEEDDKKLQLSEFFDIFEKEKVDKEALALCTDRDLQEIGIPLGPRKKILNYFSTRKNS [L6D]
output: 0.082

input: Item: TLEEDLKKLQLSEFFDIFEKEKVDKEKLALCTDRDLQEIGIPLGPRKKILNYFSTRKNS [A27K]
output: 0.67

input: Item: TLEEDLKKLQKSEFFDIFEKEKVDKEALALCTDRDLQEIGIPLGPRKKILNYFSTRKNS [L11K]
output: -1.14

input: Item: TLEEDLKKLQLSEFFDIFEKEKVDKEALALCTDRDLQEIGIPLVPRKKILNYFSTRKNS [G44V]
output: 0.375

input: Item: TLEEALKKLQLSEFFDIFEKEKVDKEALALCTDRDLQEIGIPLGPRKKILNYFSTRKNS [D5A]
output: -0.144

input: Item: TLEEDLKKLQLSEFFDIFEKEKVDKEALALCTSRDLQEIGIPLGPRKKILNYFSTRKNS [D33S]
output: -0.235

input: Item: TLEEDGKKLQLSEFFDIFEKEKVDKEALALCTDRDLQEIGIPLGPRKKILNYFSTRKNS [L6G]
output: -0.698
